melting point listing for selected compounds.

Observe how each entry below is paired with its result.
[[record]]
compound = "CC(=O)Oc1cc(OC(C)=O)cc(C(=O)CBr)c1"
result = "61 to 62 °C"

[[record]]
compound = "O=C(O)C1c2cc(Br)ccc2OCc2ncccc21 (stereo not given)"
result = "126 to 127 °C"

[[record]]
compound = "CC(=O)CC(=O)C=Cc1c[nH]c2ccccc12"
result = "155 to 158 °C"


Requested read-out: melting point. Entry: O=C(C=Cc1ccc(C(F)(F)F)cc1)N1CCCCC1CO (stereo not given)
139 to 140 °C

Moving on to the next compound: Cc1nc2cnc3cccnc3c2n1CC(C)C
110 to 111 °C

Moving on to the next compound: CC(C)(C)c1cc(CCc2ccccc2NC(=O)N2CCOCC2)cc(C(C)(C)C)c1O
186 to 189 °C

----------
melting point listing for selected compounds.

Observe how each entry below is paired with its result.
[[record]]
compound = "CCCCCCCCCCCCCCCCCC(CCC(=O)O)(CCC(=O)O)[N+](=O)[O-]"
result = "102 °C"

[[record]]
compound = "COC(=O)C1=CCC2CC(=O)C12 (stereo unspecified)"
result = "58 to 61 °C"

[[record]]
compound = "Cn1cc([C@H]2CC[C@@H](N3CCN(c4cc(Br)cc5cccnc45)CC3)CC2)c2cc(F)ccc21"
result = "215 to 217 °C"


Requested read-out: melting point. Entry: CCCCCCC(C(=O)Nc1ccccc1O)n1cnc(NC(=O)c2ccccc2S(=O)(=O)O)c1 (stereo unspecified)
138 to 147 °C

Moving on to the next compound: CCC(=O)c1ccc(COc2ccc(CO)c(CO)c2)s1
123 °C

Moving on to the next compound: O=C1NN=C(c2ccc3[nH]c(-c4ccncc4)cc3c2)CO1
322 to 325 °C

Moving on to the next compound: COc1cc2nc(N3CCN(c4nc5c([nH]4)CCCCC5)CC3)nc(N)c2cc1OC
> 250 °C

Moving on to the next compound: NC(=O)c1cc([N+](=O)[O-])c(N2CC2)c([N+](=O)[O-])c1
228 to 231 °C

Moving on to the next compound: CC(C)(C)OC(=O)COc1ccc2sc(-c3ccccn3)nc(=O)c2c1
183 to 184 °C

Moving on to the next compound: Cc1ccc(C(=O)C#CCO)cc1
74 °C

Moving on to the next compound: N#CNC=Nc1ccc(-c2cc[nH]n2)cc1
223 to 224 °C

Moving on to the next compound: CSc1ccc2sc3cc(F)ccc3c(=O)c2c1
135 to 138 °C

Moving on to the next compound: O=C1CC[C@@H](C(=O)N[C@@H](Cc2c[nH]cn2)C(=O)N[C@@H](Cc2c[nH]c3ccccc23)C(=O)OCc2ccccc2)N1
250 to 252 °C

Moving on to the next compound: Nn1ccn(C2CCc3ccccc3C2)c1=S (stereo unspecified)
187 to 189 °C

Moving on to the next compound: NC(=S)Nc1cc(F)ccc1-c1ccccc1
185 to 187 °C

Moving on to the next compound: CC(C)(C)C(O)(COC1CCCCO1)Cn1ccnc1 (stereo unspecified)
107 °C

Moving on to the next compound: CC(C)(C)c1ccc2c(c1)ncn2-c1cccc(Br)n1
98 to 100 °C

Moving on to the next compound: COc1cc(COCCc2cccc(NS(=O)(=O)C(F)(F)F)c2)ccc1-c1ccc(Cl)cc1
88 to 90 °C

Moving on to the next compound: CNC(=S)NC(c1ccccc1)c1ccccc1
152 to 154 °C

Moving on to the next compound: COc1cc(CN(O)C(N)=O)ccc1OCc1nc(-c2ccccc2)oc1C
138 to 139 °C

Moving on to the next compound: COc1cc(Nc2c(C#N)cnc3ccc(/C=C/CCN4CCOCC4)cc23)c(Cl)cc1Cl
95 to 96 °C
